Numbers sourced from patent US20230416266A1.

Target: Biotinylated KRAS G12C protein (KRAS G12C/C51S/C80L/C118S, SEQ ID NO: 1) (Homo sapiens, UniProt P01116, C118S/C51S/C80L/G12C)
Construct: 183 amino acids; biotin on K10
Sequence (P01116 with tags, fused parts or gaps isoform P01116-2 G12C/C51S/C80L/C118S): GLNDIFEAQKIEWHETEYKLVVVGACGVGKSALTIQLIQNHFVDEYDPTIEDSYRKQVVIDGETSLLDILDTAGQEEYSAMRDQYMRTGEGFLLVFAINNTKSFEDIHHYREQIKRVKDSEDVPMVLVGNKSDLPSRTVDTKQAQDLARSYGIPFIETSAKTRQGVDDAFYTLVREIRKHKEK
Assay: SOS-catalyzed nucleotide exchange assay (TR-FRET)
Assay type: biochemical
Conditions: in vitro apparent potency; preincubation time of 60 minutes prior to addition of SOS
ENDPOINT: IC50 (nM)
Give the value in nM but do not write nM after it.

C=CC(=O)N1CCN(c2nc(OC[C@@H]3CCCN3C)nc3c2CC(C)C(c2cccc4ccccc24)O3)C[C@@H]1CC#N (single isomer, unassigned) [Compound 9b]: 2130
C=CC(=O)N1CCN(c2nc(C(=O)N[C@H](C)CN(C)C)nc3c2CCC(c2cccc4ccccc24)O3)C[C@@H]1CC#N (mixture of isomers): 1410
C=CC(=O)N1CCN(c2nc(OC[C@@H]3CCCN3C)nc3c2CCC(c2cccc4cccc(C)c24)O3)C[C@@H]1CC#N (mixture of isomers): 17.5

// recorded IC50 for C=CC(=O)N1CCN(c2nc(OC[C@@H]3CCCN3C)nc3c2CCC(c2cccc4c(F)cccc24)O3)C[C@@H]1CC#N (single isomer, unassigned) [Compound 5b] : 195

molecule C=CC(=O)N1CCN(c2nc(OC[C@@H]3CCCN3C)nc3c2CCC(c2c(O)cccc2F)O3)C[C@@H]1CC#N (mixture of isomers) , IC50 observed: 793

// IC50 value for C=CC(=O)N1CCN(c2nc(OC[C@@H]3CCCN3C)nc3c2CC(F)(F)C(c2cccc4ccccc24)O3)C[C@@H]1CC#N (single isomer, unassigned) [Compound 7a] : 13.8

----------
Target: Biotinylated KRAS G12C protein (KRAS G12C/C51S/C80L/C118S, SEQ ID NO: 1) (Homo sapiens, UniProt P01116, C118S/C51S/C80L/G12C)
Construct: 183 amino acids; biotin on K10
Experiment: SOS-catalyzed nucleotide exchange assay (TR-FRET)
Type: biochemical
Conditions: in vitro apparent potency; preincubation time of 60 minutes prior to addition of SOS
IC50 values, listed per item
Give your result in nM as a bare value.

Use these answered entries as a reference point.
C=CC(=O)N1CCN(c2nc(OC[C@@H]3CCCN3C)nc3c2CC(C)C(c2cccc4ccccc24)O3)C[C@@H]1CC#N (single isomer, unassigned) [Compound 10a]: 12.9
C=CC(=O)N1CCN(c2nc(OC[C@@H]3CCCN3C)nc3c2CCC(C)(c2cccc4ccccc24)O3)C[C@@H]1CC#N (stereo partly shown): 632
C=CC(=O)N1CCN(c2nc(OC[C@@H]3CCCN3C)nc3c2CCC(c2cccc4c(F)cccc24)O3)C[C@@H]1CC#N (single isomer, unassigned) [Compound 5a]: 88.6

Then this compound:
response.value for C=CC(=O)N1CCN(c2nc(OC[C@@H]3CCCN3C)nc3c2CCC(c2cccc4ccccc24)O3)C[C@@H]1CC#N (single isomer, unassigned) [Compound 1b] (field: IC50) = 395

----------
Target: Biotinylated KRAS G12C protein (KRAS G12C/C51S/C80L/C118S, SEQ ID NO: 1) (Homo sapiens, UniProt P01116, C118S/C51S/C80L/G12C)
Construct: 183 amino acids; biotin on K10
Assay: SOS-catalyzed nucleotide exchange assay (TR-FRET)
Format: biochemical
Details: in vitro apparent potency; preincubation time of 60 minutes prior to addition of SOS
The molecules listed here are annotated with their IC50.
Express your answer in nM, writing the number without its unit.

Short answer for C=CC(=O)N1CCN(c2nc(OC[C@@H]3CCCN3C)nc3c2CC(F)(F)C(c2cccc4ccccc24)O3)C[C@@H]1CC#N (single isomer, unassigned) [Compound 7b] : IC50 was 84.8

Form field IC50, entry C=CC(=O)N1CCN(c2nc(OC[C@@H]3CCCN3C)nc3c2CCC(c2cccc4ccc5[nH]ncc5c24)O3)C[C@@H]1CC#N (mixture of isomers) [Compound 12] : 87.1

Record C=CC(=O)N1CCN(c2nc(OC[C@@H]3CCCN3C)nc3c2CC(C)C(c2cccc4ccccc24)O3)C[C@@H]1CC#N (single isomer, unassigned) [Compound 10b] . Reported IC50: 153

Entry C=CC(=O)N1CCN(c2nc(OC[C@@H]3CCCN3C)nc3c2CCC(c2c(Cl)c(C)cc4[nH]ncc24)O3)C[C@@H]1CC#N (single isomer, unassigned) [Compound 4a] — recorded IC50 = 104

Short answer for C=CC(=O)N1CCN(c2nc(OC[C@@H]3CCCN3C)nc3c2CCC(c2c(Cl)c(C)cc4[nH]ncc24)O3)C[C@@H]1CC#N (single isomer, unassigned) [Compound 4b] : IC50 was 2690

----------
# IC50 listing for each entry below
Target: Biotinylated KRAS G12C protein (KRAS G12C/C51S/C80L/C118S, SEQ ID NO: 1) (Homo sapiens, UniProt P01116, C118S/C51S/C80L/G12C)
Construct: 183 amino acids; biotin on K10
Assay: SOS-catalyzed nucleotide exchange assay (TR-FRET)
Type: biochemical
Settings: in vitro apparent potency; preincubation time of 60 minutes prior to addition of SOS
Report only the number, with the unit nM understood.

Here is how some molecules turned out for IC50.
C=CC(=O)N1CCN(c2nc(OC[C@@H]3CCCN3C)nc3c2CCC(c2cccc4ccccc24)O3)C[C@@H]1CC#N (single isomer, unassigned) [Compound 1a]: 11.4
C=CC(=O)N1CCN(c2nc(OC[C@@H]3CCCN3C)nc3c2CC(C)C(c2cccc4ccccc24)O3)C[C@@H]1CC#N (single isomer, unassigned) [Compound 9a]: 259

Moving on to the next molecule.
What the record says about C=CC(=O)N1CCN(c2nc(OC[C@@H]3CCCN3C)nc3c2CCC(c2cccc4cc(O)ccc24)O3)C[C@@H]1CC#N (single isomer, unassigned) [Compound 8a] : IC50 is 817

----------
Tested on: phosphorylation of Erk in NCI-H358 cells
Assay: Cellular phospho-ERK assay
Format: cell-based
Conditions: Homo sapiens, NCI-H358, 2 h, 2 hour incubation, ratio of p-Erk vs total Erk, read-out: IC50 (nM) pERK (Cell)
ENDPOINT: log10(IC50) (log10 of the value in nM)
Field: value | Transform: log10 | Quantity: IC50 | Unit: nM

Here is how some compounds turned out for log10(IC50).
C=CC(=O)N1CCN(c2nc(OC[C@@H]3CCCN3C)nc3c2CCC(c2c(O)cccc2F)O3)C[C@@H]1CC#N (mixture of isomers): 4.20
C=CC(=O)N1CCN(c2nc(OC[C@@H]3CCCN3C)nc3c2CCC(c2cccc4cccc(C)c24)O3)C[C@@H]1CC#N (mixture of isomers): 2.70
C=CC(=O)N1CCN(c2nc(OC[C@@H]3CCCN3C)nc3c2CCC(C)(c2cccc4ccccc24)O3)C[C@@H]1CC#N (some centres unmarked): 4.38

The measured log10(IC50) that C=CC(=O)N1CCN(c2nc(OC[C@@H]3CCCN3C)nc3c2CCC(c2c(Cl)c(C)cc4[nH]ncc24)O3)C[C@@H]1CC#N (single isomer, unassigned) showed for phosphorylation of Erk in NCI-H358 cells is 4.28

----------
System: phosphorylation of Erk in NCI-H358 cells
Assay: Cellular phospho-ERK assay
Type: cell-based
Conditions: Homo sapiens, NCI-H358, 2 h, 2 hour incubation, ratio of p-Erk vs total Erk, read-out: IC50 (nM) pERK (Cell)
ENDPOINT: IC50 (nM)
Just the number in nM, nothing appended.

Please review the following examples before continuing.
C=CC(=O)N1CCN(c2nc(OC[C@@H]3CCCN3C)nc3c2CCC(c2cccc4ccc5[nH]ncc5c24)O3)C[C@@H]1CC#N (mixture of isomers) [Compound 12]: 18500
C=CC(=O)N1CCN(c2nc(OC[C@@H]3CCCN3C)nc3c2CCC(c2cccc4c(F)cccc24)O3)C[C@@H]1CC#N (single isomer, unassigned) [Compound 5a]: 6350
C=CC(=O)N1CCN(c2nc(C(=O)N[C@H](C)CN(C)C)nc3c2CCC(c2cccc4ccccc24)O3)C[C@@H]1CC#N (mixture of isomers) [Compound 11]: 21700

Proceed to the following item.
Entry C=CC(=O)N1CCN(c2nc(OC[C@@H]3CCCN3C)nc3c2CCC(c2cccc4cc(O)ccc24)O3)C[C@@H]1CC#N (single isomer, unassigned) [Compound 8a] , IC50 reported as 26200
